FYI, the data here is from patent US6586435B2.

- TEST_SYSTEM: 5-HT1A human receptors (Homo sapiens, UniProt P08908)
- Construct: expressed in transfected cells; host or cells: CHO cells
- Sequence (P08908 whole entry): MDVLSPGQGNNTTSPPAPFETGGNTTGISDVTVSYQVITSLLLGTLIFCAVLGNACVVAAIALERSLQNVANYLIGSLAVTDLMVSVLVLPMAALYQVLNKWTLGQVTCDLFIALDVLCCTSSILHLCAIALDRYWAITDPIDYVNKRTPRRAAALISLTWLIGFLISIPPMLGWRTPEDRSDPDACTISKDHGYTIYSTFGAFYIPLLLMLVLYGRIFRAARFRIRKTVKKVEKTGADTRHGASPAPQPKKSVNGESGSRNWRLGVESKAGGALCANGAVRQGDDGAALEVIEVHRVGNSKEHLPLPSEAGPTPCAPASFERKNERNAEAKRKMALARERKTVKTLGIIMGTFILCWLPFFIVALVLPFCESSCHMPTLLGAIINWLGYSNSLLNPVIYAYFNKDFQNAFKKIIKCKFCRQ
- TEST_DETAILS: 5-HT1A radioligand receptor binding assay ([3H]-8-OH-DPAT)
Labelling field: enter TRUE if recorded IC50 is less than 6 nM. Enter FALSE if it equals or exceeds that cut-off.

Past entries and their recorded results:
CHEMICAL_SMILES: Cn1c(=O)n(C/C=C/CN2CC=C(c3ccccc3)CC2)c2ccccc21
TEST_SYSTEM: 5-HT1A human receptors (Homo sapiens, UniProt P08908)
ANSWER_LABEL: FALSE

CHEMICAL_SMILES: CCCn1c(=O)n(C/C=C/CN2CC=C(c3ccccc3)CC2)c2ccccc21
TEST_SYSTEM: 5-HT1A human receptors (Homo sapiens, UniProt P08908)
ANSWER_LABEL: FALSE

CHEMICAL_SMILES: O=c1[nH]c2ccccc2n1C/C=C\CN1CC=C(c2ccccc2)CC1
TEST_SYSTEM: 5-HT1A human receptors (Homo sapiens, UniProt P08908)
ANSWER_LABEL: FALSE

CHEMICAL_SMILES: O=c1[nH]c2ccccc2n1C/C=C\CN1CCN(c2cccc(C(F)(F)F)c2)CC1
TEST_SYSTEM: 5-HT1A human receptors (Homo sapiens, UniProt P08908)
ANSWER_LABEL: FALSE

CHEMICAL_SMILES: Cn1c(=O)n(C/C=C\CN2CC=C(c3ccccc3)CC2)c2ccccc21
TEST_SYSTEM: 5-HT1A human receptors (Homo sapiens, UniProt P08908)
ANSWER_LABEL: TRUE

CHEMICAL_SMILES: O=c1n(C/C=C\CN2CC=C(c3ccccc3)CC2)c2ccccc2n1CC1CCCCC1
TEST_SYSTEM: 5-HT1A human receptors (Homo sapiens, UniProt P08908)
ANSWER_LABEL: FALSE

CHEMICAL_SMILES: O=c1[nH]c2ccccc2n1C/C=C/CN1CCN(c2cccc(C(F)(F)F)c2)CC1
TEST_SYSTEM: 5-HT1A human receptors (Homo sapiens, UniProt P08908)
ANSWER_LABEL: TRUE

CHEMICAL_SMILES: CCCn1c(=O)n(C/C=C\CN2CC=C(c3ccccc3)CC2)c2ccccc21
TEST_SYSTEM: 5-HT1A human receptors (Homo sapiens, UniProt P08908)
ANSWER_LABEL: TRUE

Attention now turns to another entry.
IC50 strictly < 6 nM for this molecule? `O=c1n(C/C=C/CN2CC=C(c3ccccc3)CC2)c2ccccc2n1CC1CCCCC1`
TRUE
